test system: hepatocytes; assay: RNA-seq of hepatocytes treated with Phase III failure compounds; settings: gene COX6A1; hepatocytes
PROPERTY_LABEL: RNA-seq results: COX6A1 expression

Solved entries (count: 3):
[
  {
    "MOLECULE": "COc1cc2nccc(Oc3ccc(NC(=O)Nc4cc(C)on4)c(Cl)c3)c2cc1OC",
    "PROPERTY_LABEL": "RNA-seq results: COX6A1 expression",
    "MEASURED": "−0.05"
  },
  {
    "MOLECULE": "NC(=O)c1ccc(I)c([N+](=O)[O-])c1",
    "PROPERTY_LABEL": "RNA-seq results: COX6A1 expression",
    "MEASURED": "−0.13"
  },
  {
    "MOLECULE": "COc1cc2c(Oc3ccc4[nH]c(C)cc4c3F)ncnc2cc1OCCCN1CCCC1",
    "PROPERTY_LABEL": "RNA-seq results: COX6A1 expression",
    "MEASURED": 0.16
  }
]

Problem: What value of RNA-seq results: COX6A1 expression has been recorded for this entry: `C=CCNC1=C2C[C@@H](C)C[C@H](OC)[C@H](O)[C@@H](C)/C=C(\C)[C@H](OC(N)=O)[C@@H](OC)/C=C\C=C(/C)C(=O)NC(=CC1=O)C2=O`
Solution: 0.27

Problem: // RNA-seq results: COX6A1 expression lookup, key: CCC(CC)[C@H](NC(C)=O)[C@@H]1[C@H](O)[C@@H](C(=O)O)C[C@H]1NC(=N)N.O.O.O [peramivir (trihydrate), peramivir]
Solution: −0.01

Problem: Item `Cn1cnc2c(F)c(Nc3ccc(Br)cc3Cl)c(C(=O)NOCCO)cc21` has what recorded RNA-seq results: COX6A1 expression?
Solution: 0.02

Problem: Requested field: RNA-seq results: COX6A1 expression. Item: `COc1cc(Nc2ncc(F)c(Nc3ccc4c(n3)N(COP(=O)(O)O)C(=O)C(C)(C)O4)n2)cc(OC)c1OC`
Solution: 0.29

Problem: Reported RNA-seq results: COX6A1 expression, molecule O=P(O)(NCCCl)NCCCl [Palifosfamide] : ____
Solution: −0.07

Problem: May I ask what RNA-seq results: COX6A1 expression has been recorded for `CCN(CC)CCN(Cc1ccc(-c2ccc(C(F)(F)F)cc2)cc1)C(=O)Cn1c(SCc2ccc(F)cc2)nc(=O)c2c1CCC2` ?
Solution: −0.08

Problem: Please give the measured RNA-seq results: COX6A1 expression for this molecule: `CCOC(=O)N1c2ccc(C(F)(F)F)cc2[C@@H](N(Cc2cc(C(F)(F)F)cc(C(F)(F)F)c2)C(=O)OC)C[C@H]1CC`
Solution: 0.62

Problem: Can you share its RNA-seq results: COX6A1 expression? I mean this molecule: `Cn1cc(C2=C(c3cn(C4CCN(Cc5ccccn5)CC4)c4ccccc34)C(=O)NC2=O)c2ccccc21`
Solution: −1.30

* * *

test system: hepatocytes; experiment: RNA-seq of hepatocytes stimulated with the compounds of Table 68; details: hepatocytes stimulated with the compound; RNA-seq; significance: FPKM≥1, q-value≤0.05, log 2 fold change≥1.5
Threshold 300. # of genes having significantly altered expression below it: 1. # of genes having significantly altered expression at it or above: -1.

[
  {
    "SMILES_NOTATION": "COc1cc2c(cc1OC)-c1c(OC)c(OC)cc3ccnc(c13)C2=O",
    "LABEL_CLASS": 1
  },
  {
    "SMILES_NOTATION": "O=c1cc(N2CCOCC2)oc2c(-c3ccccc3)cccc12",
    "LABEL_CLASS": -1
  },
  {
    "SMILES_NOTATION": "NCC(=O)Nc1ccc(-n2nc(C(F)(F)F)cc2-c2ccc3c(ccc4ccccc43)c2)cc1",
    "LABEL_CLASS": -1
  },
  {
    "SMILES_NOTATION": "C[C@@H](Oc1cc(-c2cnn(C3CCNCC3)c2)cnc1N)c1c(Cl)ccc(F)c1Cl",
    "LABEL_CLASS": -1
  },
  {
    "SMILES_NOTATION": "CN(C)C/C=C/C(=O)Nc1cc2c(Nc3ccc(F)c(Cl)c3)ncnc2cc1O[C@H]1CCOC1",
    "LABEL_CLASS": -1
  }
]

Problem: Strictly below 300: is that where # of genes having significantly altered expression of `NCCc1c[nH]cn1` sits?
Solution: 1

Problem: # TODO verify # of genes having significantly altered expression < 300 strictly for this compound: `CC1(C)CCC(c2ccc(Cl)cc2)=C(CN2CCN(c3ccc(C(=O)NS(=O)(=O)c4ccc(N[C@H](CCN5CCOCC5)CSc5ccccc5)c(S(=O)(=O)C(F)(F)F)c4)cc3)CC2)C1`
Solution: 1

Problem: Check if # of genes having significantly altered expression falls below 300 for `OCCn1cc(-c2ccc3c(c2)CC/C3=N\O)c(-c2ccncc2)n1` .
Solution: 1
